Test system: southern crabgrass
Experiment: Herbicidal effect test by treatment of stem and leaf in dry field farming (Test Example 4)
Type: in vivo
Details: 120 g/10 a, stem and leaf treatment seven days after seeding, 14 days after treatment
Protocol: Herbicidal Rate (%)={1−(Average Dry Weight (g) of Plant of Treated Area)/(Average Dry Weight (g) of Plant of Untreated Area)}×100 [Math. 1] Pots with a size of 36 cm^2 were filled with a dry field farming soil (alluvium). […] The herbicidal effects were evaluated by the same standard as that in Test Example 1, 14 days after the treatment with the agents. […]
measurementLabel: Herbicidal rate, southern crabgrass (%)

[[record]]
molecule = "CCCOC(=O)N(c1ccccc1Cc1c(C)n(C2CCCC2OC)oc1=O)S(=O)(=O)C(F)(F)F (stereo not drawn) [Compound 200]"
measurementlabel = "Herbicidal rate, southern crabgrass"
testresult = 80

[[record]]
molecule = "COC1CCCCC1n1oc(=O)c(Cc2ccccc2N(C(=O)OCC(C)C)S(=O)(=O)C(F)(F)F)c1C (stereo not drawn) [Compound 250]"
measurementlabel = "Herbicidal rate, southern crabgrass"
testresult = 90

[[record]]
molecule = "COC1CCCC1n1oc(=O)c(Cc2ccccc2N(C(=O)c2ccc(Cl)cc2)S(=O)(=O)C(F)(F)F)c1C (stereo not drawn) [Compound 147]"
measurementlabel = "Herbicidal rate, southern crabgrass"
testresult = 80

[[record]]
molecule = "COC1CCCC1n1oc(=O)c(Cc2ccccc2N(C(=O)C(C)C)S(=O)(=O)C(F)(F)F)c1C (stereo not drawn) [Compound 113]"
measurementlabel = "Herbicidal rate, southern crabgrass"
testresult = 80

[[record]]
molecule = "CCOC(=O)N(c1ccccc1Cc1c(C)n(C2CCCCC2OC)oc1=O)S(=O)(=O)C(F)(F)F (stereo not drawn) [Compound 190]"
measurementlabel = "Herbicidal rate, southern crabgrass"
testresult = 90

[[record]]
molecule = "COC1CCCC1n1oc(=O)c(Cc2ccccc2N(C(=O)Oc2ccccc2)S(=O)(=O)C(F)(F)F)c1C (stereo not drawn) [Compound 286]"
measurementlabel = "Herbicidal rate, southern crabgrass"
testresult = 80

[[record]]
molecule = "COC1CCCC1n1oc(=O)c(Cc2ccccc2N(S(=O)(=O)C(F)(F)F)S(=O)(=O)C(F)(F)F)c1C (stereo not drawn) [Compound 349]"
measurementlabel = "Herbicidal rate, southern crabgrass"
testresult = 80

[[record]]
molecule = "COC1CCCCC1n1oc(=O)c(Cc2ccccc2NS(=O)(=O)C(F)(F)F)c1C (stereo not drawn) [Compound 62]"
measurementlabel = "Herbicidal rate, southern crabgrass"
testresult = 90

[[record]]
molecule = "COC1CCCCC1n1oc(=O)c(Cc2ccccc2N(C(=O)Oc2ccccc2)S(=O)(=O)C(F)(F)F)c1C (single isomer, unassigned) [Compound 288]"
measurementlabel = "Herbicidal rate, southern crabgrass"
testresult = 90

[[record]]
molecule = "COC1CCCCC1n1oc(=O)c(Cc2ccccc2N(S(=O)(=O)C(F)(F)F)S(=O)(=O)C(F)(F)F)c1C (stereo not drawn) [Compound 351]"
measurementlabel = "Herbicidal rate, southern crabgrass"
testresult = 80

[[record]]
molecule = "COC1CCCC1n1oc(=O)c(Cc2ccccc2N(C(=O)OCC(C)C)S(=O)(=O)C(F)(F)F)c1C (stereo not drawn) [Compound 248]"
measurementlabel = "Herbicidal rate, southern crabgrass"
testresult = 80

[[record]]
molecule = "COC1CCCC1n1oc(=O)c(Cc2ccccc2N(C(C)=O)S(=O)(=O)C(F)(F)F)c1C (stereo not drawn) [Compound 107]"
measurementlabel = "Herbicidal rate, southern crabgrass"
testresult = 80

[[record]]
molecule = "COC1CCCC1n1oc(=O)c(Cc2ccccc2N(C(=O)CC(C)C)S(=O)(=O)C(F)(F)F)c1C (stereo not drawn) [Compound 119]"
measurementlabel = "Herbicidal rate, southern crabgrass"
testresult = 80

[[record]]
molecule = "COC1CCCC1n1oc(=O)c(Cc2ccccc2N(C(=O)OC(C)C)S(=O)(=O)C(F)(F)F)c1C (stereo not drawn) [Compound 212]"
measurementlabel = "Herbicidal rate, southern crabgrass"
testresult = 80

[[record]]
molecule = "COC1CCCC1n1oc(=O)c(Cc2ccccc2NS(=O)(=O)C(F)(F)F)c1C (stereo not drawn) [Compound 59]"
measurementlabel = "Herbicidal rate, southern crabgrass"
testresult = 90

